In this section we review reported inhibition at 0.5 µM values for a set of compounds.
biological target: Cytochrome P450 11B2, mitochondrial (Homo sapiens, UniProt P19099); test: Inhibition of human aldosterone synthase expressed in chinese hamster V79 cells at 500 nM using 11-deoxycorticosterone as substrate; details: read-out: INH
Sequence (P19099 whole entry): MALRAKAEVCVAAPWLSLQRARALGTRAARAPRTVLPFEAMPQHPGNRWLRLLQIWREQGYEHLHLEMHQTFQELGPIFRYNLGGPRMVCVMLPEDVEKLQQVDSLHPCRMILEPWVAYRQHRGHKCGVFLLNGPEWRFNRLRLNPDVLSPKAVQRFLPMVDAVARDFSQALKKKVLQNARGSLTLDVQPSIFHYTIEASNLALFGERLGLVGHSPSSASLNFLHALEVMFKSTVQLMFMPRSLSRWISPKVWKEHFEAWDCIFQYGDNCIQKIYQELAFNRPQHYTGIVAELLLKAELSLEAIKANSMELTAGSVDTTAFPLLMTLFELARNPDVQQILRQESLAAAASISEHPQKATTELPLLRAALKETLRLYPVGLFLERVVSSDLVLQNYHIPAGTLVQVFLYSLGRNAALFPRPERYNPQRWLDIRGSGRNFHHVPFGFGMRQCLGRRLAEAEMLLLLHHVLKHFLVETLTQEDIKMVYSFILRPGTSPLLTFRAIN
Property Label: inhibition at 0.5 µM (%)

Cpd Smiles	Unit Symbol	Reported Value
O=C(Nc1cccnc1)c1ccccc1	%	30
O=C(Nc1cccnc1)c1ccc([N+](=O)[O-])cc1	%	64
Cc1ccc(C(=O)Nc2cccnc2)cc1	%	25
O=C(Nc1cccnc1)c1cccc(Cl)c1Cl	%	51
O=C(Nc1cccnc1)c1ccc(-c2ccccc2)cc1	%	6
O=C(Nc1cccnc1)c1ccc(Br)cc1	%	64
CC(C)(C(=O)c1cccnc1)c1cccnc1	%	79
O=C(Nc1cccnc1)c1ccc(F)c(F)c1	%	83
O=C(Nc1cccnc1)c1ccc(C(F)(F)F)cc1	%	1
COc1ccc(C(=O)Nc2cccnc2)cc1	%	19
O=C(Nc1cccnc1)c1ccc(Cl)cc1	%	88
O=C(Nc1cccnc1)c1cc(F)c(F)cc1F	%	70
O=C(Nc1cccnc1)c1ccccc1F	%	34
